# maps each entry to its TGI
system: MALME-3M melanoma; test: NCI tumour cell line growth inhibition, 48 h
measure: TGI

{"compound": "O=C1[C@H]2ON(c3ccccc3)C(c3ccccc3F)[C@H]2C(=O)N1c1ccc(Cc2ccc(N3C(=O)[C@@H]4ON(c5ccccc5)C(c5ccccc5F)[C@@H]4C3=O)cc2)cc1 (some centres undefined)", "val": "> 100 µM"}
{"compound": "COc1ccc2c(c1)CC1(O)COc3cc(OC)ccc3C1O2 (centres undefined)", "val": "> 100 µM"}
{"compound": "Nc1nn(CC(O)CO)c(=O)s1 (centres undefined)", "val": "> 100 µM"}
{"compound": "CN(C(=O)C12C3(C(=O)C(C)(C)C)C4C5(C#N)C3C1(C(=O)C(C)(C)C)C5C42C(=O)C(C)(C)C)C(C)(C)C (centres undefined)", "val": "> 50 µM"}
{"compound": "CO[C@H]1C[C@H](n2cc(C)c(=O)[nH]c2=O)O[C@@H]1CO", "val": "> 100 µM"}
{"compound": "NNC(=O)CCC(NS(=O)(=O)c1ccc(Cl)cc1)C(=O)NN (centres undefined)", "val": "> 100 µM"}
{"compound": "CCCCCCCCCCCCCCCCCCOc1ccc(/C=C/C2=[N+](CCCl)CCO2)cc1", "val": "> 100 µM"}
{"compound": "CCOc1ccccc1N1C(=O)C(=O)C(c2nc3ccccc3o2)/C(=N\\N)C1=O (centres undefined)", "val": "> 100 µM"}
{"compound": "O=C1c2ccccc2-c2nnc(-c3ccc(Cl)cc3)cc21", "val": "> 10 µM"}
